The origin of these recorded values is patent US20220259315A1.

Biological target: T1, monkey Fc-PD-1 protein (monkey, UniProt Q15116 25-170 (human entry))
T1 construct: not shown: Fc part not described
T1 chain: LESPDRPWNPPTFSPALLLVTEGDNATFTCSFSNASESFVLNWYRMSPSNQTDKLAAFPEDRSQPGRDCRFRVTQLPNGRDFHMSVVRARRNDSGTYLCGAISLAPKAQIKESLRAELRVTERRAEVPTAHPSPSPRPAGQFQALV
Experiment: Biacore, Fab, monkey Fc-PD-1
test.readout: koff (s⁻¹)
Just the number in s⁻¹, nothing appended.

A selection of reference data follows.
INSERT INTO assay_data (binder, quantitative_readout) VALUES
  ('A35793 (Fab, V domains shown, humanized Fab clone of 137F2; also called humanized antibody A35793) VH: QMQLVQSGPEVKKPGTSVKVSCKASGFTFTNYWIGWVRQAPGQALEWMGDIYPGGGYTNYNEKFKGRVTITADKSTSTAYMELSSLRSEDTAVYYCARGYDFVLDRWGQGTTVTVSS VL: DVVMTQSPAFLSVTPGEKVTITCKSSQSLFNSETQKNYLAWYQQKPGQPPKLLIYWASTRESGVPSRFSGSGSGTDFTFTISSLEAEDAATYYCKQSYTLRTFGGGTKLEIK', 0.000105),
  ('A35818 (Fab, V domains shown, humanized Fab clone of 137F2; also called humanized antibody A35818) VH: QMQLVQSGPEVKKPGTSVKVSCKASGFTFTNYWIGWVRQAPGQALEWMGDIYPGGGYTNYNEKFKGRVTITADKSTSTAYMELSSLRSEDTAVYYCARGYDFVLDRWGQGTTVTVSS VL: DVVMTQSPAFLSVTPGEKVTITCKSSQSLFNSETQKNYLAWYQQKPGQAPRLLIYWASTRESGVPSRFSGSGSGTDFTFTISSLEAEDAATYYCKQSYTLRTFGGGTKLEIK', 0.000116),
  ('A35795 (Fab, V domains shown, humanized Fab clone of 137F2; also called humanized antibody A35795) VH: QVQLVQSGAEVKKPGASVKVSCKASGYTFTNYWIGWVRQAPGQGLEWMGDIYPGGGYTNYNEKFKGRVTITADKSTSTAYMELSSLRSEDTAVYYCARGYDFVLDRWGQGTTVTVSS VL: DVVMTQSPAFLSVTPGEKVTITCKSSQSLFNSETQKNYLAWYQQKPGQAPRLLIYWASTRESGVPSRFSGSGSGTDFTLTISSLQPEDFATYYCKQSYTLRTFGGGTKLEIK', 0.000152);

Data request, read-out koff, for A35805 (Fab, V domains shown, humanized Fab clone of 137F2; also called humanized antibody A35805) VH: QVQLVQSGSELKKPGASVKVSCKASGYTFTNYWIGWVRQAPGKGLEWMGDIYPGGGYTNYNEKFKGRVTITADKSTSTAYMELSSLRSEDTAVYYCARGYDFVLDRWGQGTTVTVSS VL: DVVMTQSPAFLSVTPGEKVTITCKSSQSLFNSETQKNYLAWYQQKPGQPPKLLIYWASTRESGVPSRFSGSGSGTDFTFTISSLEAEDAATYYCKQSYTLRTFGGGTKLEIK 9.49e-05

So what does the record say about koff for A35796 (Fab, V domains shown, humanized Fab clone of 137F2; also called humanized antibody A35796) VH: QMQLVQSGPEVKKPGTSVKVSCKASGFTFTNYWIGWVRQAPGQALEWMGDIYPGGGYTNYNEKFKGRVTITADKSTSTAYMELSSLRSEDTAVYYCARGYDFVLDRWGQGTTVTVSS VL: DVVMTQSPAFLSVTPGEKVTITCKSSQSLFNSETQKNYLAWYQQKPGQPPKLLIYWASTRESGVPSRFSGSGSGTDFTLTISSLQPEDFATYYCKQSYTLRTFGGGTKLEIK ? 9.81e-05

Entry A35797 (Fab, V domains shown, humanized Fab clone of 137F2; also called humanized antibody A35797) VH: EVQLVQSGAEVKKHGESLKISCKGSGYSFTNYWIGWVRQATGQGLEWMGDIYPGGGYTNYNEKFKGRVTITADKSTSTAYMELSSLRSEDTAVYYCARGYDFVLDRWGQGTTVTVSS VL: DIQMTQSPSSLSASVGDRVTITCKSSQSLFNSETQKNYLAWYQQKPGQPPKLLIYWASTRESGVPSRFSGSGSGTDFTLTISSLQPEDFATYYCKQSYTLRTFGGGTKLEIK : reported koff = ? 0.000106

Value lookup for koff; key = A35799 (Fab, V domains shown, humanized Fab clone of 137F2; also called humanized antibody A35799) VH: QMQLVQSGAEVKKTGSSVKVSCKASGYTFTNYWIGWVRQMPGKGLEWMGDIYPGGGYTNYNEKFKGRVTITADKSTSTAYMELSSLRSEDTAVYYCARGYDFVLDRWGQGTTVTVSS VL: DVVMTQSPAFLSVTPGEKVTITCKSSQSLFNSETQKNYLAWYQQKPGQPPKLLIYWASTRESGVPSRFSGSGSGTDFTLTISSLQPEDFATYYCKQSYTLRTFGGGTKLEIK 0.000169
